Test system: MIWI (PIWIL1) piRISC loaded with L1MC piRNA (30 nt);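 note: 1 nM active piRISC with 0.1 nM target library at 33 °C single turnover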
assay_explanation: pre-steady-state target cleavage rate (min^-1); MIWI and MILI are mouse PIWI proteins and EfPiwi is from a freshwater sponge; tags in brackets are library labels; higher = faster piRNA-guided slicing of the target;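 note: 1 nM active piRISC with 0.1 nM target library at 33 °C single turnover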
measurement_parameters: guide: L1MC piRNA 5'p-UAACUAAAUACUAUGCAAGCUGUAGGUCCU; auxiliary factor: 500 nM mouse GTSF1
The full ranking holds about 8,200 sequences; the median of “pre-steady-state target cleavage rate” is about 0.024, and the highest 2% start at about 1.3. The list comes from a sample in which the highest values are over-represented; it also holds close analogues and randomly drawn sequences.
readout_name: pre-steady-state target cleavage rate

> print(dat)
                                    seq.text  quantitative.readout
 1            UCCUGGAUGAGCUUGCAUAGUAUUUUCUAA                 0.222
 2            UCCACCUACAGCUUGCAAAGUAUUUAGUUA                 0.937
 3             UCGACCUACAGCUUGCAAGUAUUUAGUUA                 0.427
 4            UCCUGCUUGUGCUUGCAUAGUAUUUAGUAA                 0.133
 5            UCCUGCUACUGCUUGCAUAGUAUAUAGUUA                 0.226
 6            ACGACCUACAGCUUGCAAAGUAUUUAGUUA                  1.56
 7           UCGACCUACAGCUUGCAUAGUAUUAUAGUUA                  1.32
 8            UCAACCUACAGCUUGCAUAGUAUUUAGUUA                  1.43
 9            UCCUGCUACAGCUUGCAUAGAUUUUAGAAA               0.00439
10           AGGACCGUACAGCUUGCAUAGUAUUUAGUUA                  1.16
11           UCGACCUUACAGCUUGCAUAGUAUUUAGUUA                  1.47
12            UGGACUUACAGCUUGCAUAGUAUUUAGUUA                  1.45
13            UCGACUUACAGCUUGCAUAGUAUUUAGUUA                  1.56
14            UCCUGGAACUGCUAGCAUAGUAUUUAGUUA                 0.534
15             UCGACCUACAGCUUGCAUAGUAUUAGUUA                 0.346
16             UCGACUACAGCUUGCAUAGUAUUUAGUUA                   1.3
17            AGGACCUACAGCUUGCAAAGUAUUUAGUUA                  1.26
18           UCCAACCUACAGCUUGCAUAGUAUUUAGUUA                  1.05
19  AGGACCUACAGCUUGCAUAGUAUUUAGUUC [g2:g30:cont:t1C]                 0.664
20            UCCUGGAUGAGCUUGCAUACUAUUUAGAUA                0.0538
21            UGGAGCUACAGCUUGCAUUGUAUUUAGUUA                 0.934
22            UCGACCUACAGCUUGCAAAGUAUUUAGUAA                  0.99
23  UCGACCUACAGCUUGCAUAGUAUUUAGUUA [g2:g28:cont:t1A]                  1.56
24            UGGACCUACAGCUUGCAAAGUAUUUAGUUA                  1.36
25            UCGACCUACAGCUUGCAAAGUAUUUAGUUA                  1.47
26            UGGACCUACAGCUUGCAAAGUAUUUAGUAA                  1.13
27            UCCACCUACAGCUUCCAUAGUAUUUACAAA                0.0165
